# target_or_system: human Glucose-dependent Insulinotropic Polypeptide Receptor (hGIPR) (Homo sapiens)
# Sequence (P48546 22-466): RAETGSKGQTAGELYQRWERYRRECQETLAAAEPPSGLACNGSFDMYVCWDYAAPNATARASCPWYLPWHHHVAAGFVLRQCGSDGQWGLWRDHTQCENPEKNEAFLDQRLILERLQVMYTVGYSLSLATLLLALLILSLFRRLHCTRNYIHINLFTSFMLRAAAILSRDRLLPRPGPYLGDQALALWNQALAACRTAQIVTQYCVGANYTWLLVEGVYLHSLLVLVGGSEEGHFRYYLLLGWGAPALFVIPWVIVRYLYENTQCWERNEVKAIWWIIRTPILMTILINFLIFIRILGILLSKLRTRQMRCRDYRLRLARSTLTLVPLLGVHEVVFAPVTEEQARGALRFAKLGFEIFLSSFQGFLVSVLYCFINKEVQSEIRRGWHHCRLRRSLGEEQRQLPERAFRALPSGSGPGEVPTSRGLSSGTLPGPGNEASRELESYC
# assay_notes: Functional in vitro GIPR antagonist potency assay (cAMP HTRF, CHO-K1 cells stably expressing hGIPR, hGIP stimulation at about EC80)
# condition_description: geometric mean, hGIP at estimated EC80, examples marked ^2: overall geometric mean of multiple forms (including salts) tested
# Description: Example AA. Functional In Vitro GIPR Antagonist Potency Assay The functional in vitro antagonist potency for test compounds was determined by monitoring intracellular cyclic adenosine monophosphate (cAMP) levels in Chinese hamster ovary (CHO)—K1 cells stably expressing the human Glucose-dependent Insulinotropic Polypeptide Receptor (hGIPR). […] Intracellular cAMP levels are quantitated using a homogenous assay utilizing the Homogeneous Time Resolved Fluorescence (HTRF) technology from Perkin Elmer. […]
Categories are defined by ranges of IC50, namely zone 1 (below 20 nM), zone 2 (20 nM to below 80 nM), zone 3 (80 nM or more)

Solved cases below.
• Cc1cc(NC(=O)N2CCC[C@@H]2C(=O)Nc2ccc3c(n2)CC[C@@H](C(=O)O)C3)ccc1C(F)(F)F (single isomer, unassigned) [Example 227] = zone 2
• O=C(O)c1ccc(-c2ccc(NC(=O)[C@H]3CCCN3C(=O)Nc3ccc(Cl)cc3Cl)cc2)cc1 = zone 2
• Cc1cc(NC(=O)N2CCC[C@@H]2C(=O)Nc2ccc(-c3ccc(C(=O)O)cc3)nc2)ncc1C(F)(F)F = zone 3
• CC(C)c1ccc(NC(=O)N2CCC[C@@H]2C(=O)Nc2ccc(-c3ccc(C(=O)O)cc3)nc2)cc1 = zone 1
• C[C@H](NC(=O)N1CCC[C@@H]1C(=O)Nc1ccc(-c2ccc(C(=O)O)cc2)cc1)c1ccc(C(F)(F)F)cc1 = zone 2
• CC(C)c1ccc(NC(=O)N2CCC[C@@H]2C(=O)Nc2ccc(-c3cccc(C(=O)O)c3)nc2)cc1 = zone 3

Okay, next one:
### Prompt Note: place this compound into its band. Item: `O=C(O)c1ccc(-c2ccc(NC(=O)[C@H]3CCCN3C(=O)Nc3ccc(C4CC4)cc3F)cc2)cc1`
### Response zone 2
